- Test system: SF-295
- test name: NCI tumour cell line growth inhibition, 48 h
The source made the active and inactive calls. Cut-off read from the data, not from the text of the source: active = GI50 up to about 1.1 µM and inactive = higher.
Examples of compounds with documented GI50 follow.

Past entries and their recorded results:
{"compound": "COc1cc(/C=C2\\N=C(c3ccccc3)N(c3nc4ccc(Sc5ccccc5)cc4[nH]3)C2=O)cc(OC)c1OC", "test value": "23.6 µM (inactive)"}
{"compound": "COc1ccc(-c2cc(-c3cc(F)c(Cl)cc3Cl)[nH]n2)cc1OC", "test value": "18.3 µM (inactive)"}
{"compound": "CC(C)(C)c1cc2c(OC/C=C/c3ccccc3)c(c1)Cc1cc(C(C#N)(OC/C=C/c3ccccc3)OC/C=C/c3ccccc3)cc(c1OC/C=C\\c1ccccc1)Cc1cc(C(C)(C)C)cc(c1OC/C=C/c1ccccc1)Cc1cc(C(C#N)(OC/C=C\\c3ccccc3)OC/C=C/c3ccccc3)cc(c1OC/C=C\\c1ccccc1)C2 (stereo not given)", "test value": "> 100 µM (inactive)"}
{"compound": "Cc1ccc(S(=O)(=O)SC(C)(C)C)cc1", "test value": "> 100 µM (inactive)"}
{"compound": "CC(O)CCNC(=O)Nc1c(C(F)(F)F)cc(-c2ccccc2)[nH]c1=O (stereo not given)", "test value": "> 100 µM (inactive)"}
{"compound": "CC(C)=CCC(O)[C@](C)(O)[C@H]1[C@H](O)C[C@@]2(C)[C@@H]3CCc4cc(O)c(OC5OC(CO)C(O)C(O)C5O)cc4C3(C)C(=O)C[C@]12C (stereo not given in full)", "test value": "> 100 µM (inactive)"}
{"compound": "CCCCCCCCCCCCCCCCCCOc1ccc(/C=C/C2=[N+](CCCl)CCO2)cc1", "test value": "> 100 µM (inactive)"}
{"compound": "COc1ccc(-c2c(C(C)=O)c(C)n(C3OC(COC(C)=O)C(OC(C)=O)C(OC(C)=O)C3OC(C)=O)c(=S)c2C#N)cc1 (stereo not given)", "test value": "69 µM (inactive)"}

GI50 for CCCCCCCCCCCCCC(=O)OC1C(O)C(CO)OC(OC)C1NC(=O)N(CCCl)N=O (stereo not given) ? 29 µM (inactive)

GI50 for C[C@@H](CO)C1=CC(C#C[Si](C)(C)C)N(C(=O)Oc2ccccc2)c2ccccc21 (stereo not given in full) ? 12.2 µM (inactive)

====

- System: OVCAR-3
- test name: NCI tumour cell line growth inhibition, 48 h
The source made the active and inactive calls. No stated cut-off is given here; in the data, active = GI50 up to about 1.1 µM and inactive = higher.
observable: GI50

Past entries and their recorded results:
{"compound": "CC1(C)CCC[C@]2(C)[C@@H]1CC[C@@]13O[C@@H]1C1=C(CO)C(=O)O[C@]14O[C@@H]4[C@@H]23", "GI50": "13.2 µM (inactive)"}
{"compound": "CCOC(=O)Nc1ccc2c(c1)c(CCCCCCc1nc3ccccc3c3ccc(NC(=O)OCC)cc13)nc1ccccc12", "GI50": "21.3 µM (inactive)"}
{"compound": "N=S(=O)(c1ccccc1)c1ccccc1[N+](=O)[O-] (configuration not stated)", "GI50": "> 100 µM (inactive)"}
{"compound": "CCc1cc(O)c(Cl)c(C)c1Cl", "GI50": "18.2 µM (inactive)"}

GI50 for C=CC1ON(Cc2ccccc2)CCc2cc(OC)c(OC)cc21 (configuration not stated) ? 35.4 µM (inactive)

GI50 for [N-]=[N+]=NC1C(Br)C(=O)NC(=O)N1[C@H]1C[C@H](O)[C@@H](CO)O1 (some centres not stated) ? > 100 µM (inactive)

GI50 for Cc1ccccc1NC(=O)c1cc2cc(/N=N/c3ccccc3C(=O)O)ccc2oc1=O ? 34.8 µM (inactive)

GI50 for Fc1ccc(/C(=N/Cc2ccccc2)N2CCOCC2)cc1 ? > 100 µM (inactive)

====

- Test system: HT-29
- test name: NCI tumour cell line growth inhibition, 48 h
Active and inactive are the calls of the source. Cut-off read from the data, not from the text of the source: active = GI50 up to about 1.1 µM and inactive = higher.
observable: GI50

Past entries and their recorded results:
{"molecule": "CCOC(=O)/C(=C\\c1ccc(N(CCC#N)CCC#N)cc1)NC(=O)c1cc([N+](=O)[O-])ccc1Cl", "test value": "> 100 µM (inactive)"}
{"molecule": "Cc1ccccc1NC(=O)c1cc2cc(/N=N/c3ccccc3C(=O)O)ccc2oc1=O", "test value": "15.2 µM (inactive)"}
{"molecule": "N#C[BH2-][n+]1cn(C2CC(OP(=O)(O)OCC3OC(n4cnc5c(=O)[nH]c(N)nc54)CC3O)C(CO)O2)c2nc(N)[nH]c(=O)c21 (centres undefined)", "test value": "> 100 µM (inactive)"}
{"molecule": "CCc1cc(O)c(Cl)c(C)c1Cl", "test value": "19.2 µM (inactive)"}
{"molecule": "ClCCCCOC1CCCCO1 (centres undefined)", "test value": "> 100 µM (inactive)"}

Now turn to the next molecule.
GI50 for CSc1nc(SC)c2c(C(N)=S)n[nH]c2n1 ? 33 µM (inactive)

====

Examples of compounds with documented GI50 follow.
- System: M14
- test name: NCI tumour cell line growth inhibition, 48 h
Active and inactive are the calls of the source. Cut-off read from the data, not from the text of the source: active = GI50 up to about 1.1 µM and inactive = higher.

Past entries and their recorded results:
{"compound": "CC1(O)CC(C(F)(F)F)(C(F)(F)F)OC1=O (configuration not stated)", "GI50": "> 10 µM (inactive)"}
{"compound": "CC(=O)N1c2ccccc2[C@H]2CCc3c([nH]c4ccccc34)[C@H]21", "GI50": "14.3 µM (inactive)"}

Value wanted: GI50 (M14) of entry CC(=O)c1cc2c(Br)cccc2oc1=O > 100 µM (inactive)

Value wanted: GI50 (M14) of entry COc1ccc2cc1Oc1ccc(cc1)C[C@@H]1c3cc(c(OC)cc3CCN1C)Oc1c(OC)c(OC)cc3c1[C@@H](C2)N(C)CC3 1.98 µM (inactive)

Value wanted: GI50 (M14) of entry C=CCOC(=O)Cn1ccc(=O)[nH]c1=O > 100 µM (inactive)

====

Examples of compounds with documented GI50 follow.
- Tested on: RXF 393
- test name: NCI tumour cell line growth inhibition, 48 h
Calls of active or inactive are those of the source. Rule as the data show it: active = GI50 up to about 1.1 µM and inactive = higher.

Past entries and their recorded results:
{"compound": "O=c1c(Br)cc2c(-c3ccccc3)c3cc(Br)c(O)c(Br)c3oc-2c1Br", "GI50": "> 100 µM (inactive)"}
{"compound": "C[C@H](C(=O)N1C(=O)O[C@@H](c2ccccc2)[C@H]1C)[C@H](c1ccccc1)N(Cc1ccccc1)OC(=O)c1ccccc1", "GI50": "73.8 µM (inactive)"}
{"compound": "CCCCCCCCCCCCCC(=O)OC1C(O)C(CO)OC(OC)C1NC(=O)N(CCCl)N=O (stereo not drawn)", "GI50": "47 µM (inactive)"}
{"compound": "Cn1ccnc1Cn1cc(-c2cccc(-c3cn[nH]c3)c2)cn1", "GI50": "24.8 µM (inactive)"}

GI50 for O=C(N1CCN(c2ccccc2)CC1)N(C(=O)C1(c2ccc(Cl)cc2)CCCC1)S(=O)(=O)c1ccccc1 ? 42.2 µM (inactive)

GI50 for O=C1CC(NC(=O)C(F)(F)F)c2c(Br)sc(N3CCC(c4ccccc4)CC3)c21 (stereo not drawn) ? 17 µM (inactive)

GI50 for Cc1noc2cccc(OCc3ccccc3)c12 ? 30.8 µM (inactive)

GI50 for O=[N+]([O-])c1ccc2nc(/C(=N/Nc3ccccc3)C(O)c3ccc(Cl)cc3Cl)c(O)nc2c1 (stereo not drawn) ? > 100 µM (inactive)

====

Examples of compounds with documented GI50 follow.
- Test system: SK-MEL-28
- test name: NCI tumour cell line growth inhibition, 48 h
Activity calls are given as the source filed them. No stated cut-off is given here; in the data, active = GI50 up to about 1.1 µM and inactive = higher.

Past entries and their recorded results:
{"compound": "COC(=O)CCN1CCN(CCO)CC1C (centres undefined)", "GI50": "> 10 µM (inactive)"}
{"compound": "COc1ccc2nc3ccccc3c(NCCCCCN(CCCl)CCCl)c2c1", "GI50": "0.214 µM (active)"}
{"compound": "O=c1c2c(no[n+]2[O-])c2ccccc2n1-c1ccccc1", "GI50": "5.46 µM (inactive)"}

Now turn to the next compound.
GI50 for Cc1[nH]n(-c2nc(O)c(-c3ccccc3)c(=O)[nH]2)c(=O)c1CCO ? > 100 µM (inactive)

====

- System: SW-620
- test name: NCI tumour cell line growth inhibition, 48 h
Calls of active or inactive are those of the source. Rule as the data show it: active = GI50 up to about 1.1 µM and inactive = higher.
Examples of molecules with documented GI50 follow.

{"molecule": "CC(C)CC(NC=O)C(=O)NC(Cc1ccccc1)NC(=O)CNC(=O)C(C)NC(=O)C(N)Cc1ccc(O)cc1 (stereo not drawn)", "GI50": "> 100 µM (inactive)"}

Value wanted: GI50 (SW-620) of entry ClC1(c2ccccc2)c2ccc(Br)cc2-c2cc(Br)ccc21 19.8 µM (inactive)

Value wanted: GI50 (SW-620) of entry Cc1ccc(S(=O)(=O)SC(C)(C)C)cc1 22.2 µM (inactive)

====

- System: CCRF-CEM
- test name: NCI tumour cell line growth inhibition, 48 h
Activity calls are given as the source filed them. Rule as the data show it: active = GI50 up to about 1.1 µM and inactive = higher.
observable: GI50

Past entries and their recorded results:
{"molecule": "COC(=O)C(CC(C)C)NC(=O)C(NC(=O)c1ccc(-c2ccc(Cl)cc2Cl)o1)C(C)C (stereo not given)", "GI50": "12.2 µM (inactive)"}
{"molecule": "COc1c(C)c(C/C=C(\\C)CC/C=C(\\C)CCC=C(C)C)c(OC)c(OC)c1OC", "GI50": "56.5 µM (inactive)"}
{"molecule": "CCOC(=O)Nc1ccc2c(c1)c(CCCCCCc1nc3ccccc3c3ccc(NC(=O)OCC)cc13)nc1ccccc12", "GI50": "> 100 µM (inactive)"}
{"molecule": "CC(C)(C)c1cc2c(OC/C=C/c3ccccc3)c(c1)Cc1cc(C(C#N)(OC/C=C/c3ccccc3)OC/C=C/c3ccccc3)cc(c1OC/C=C\\c1ccccc1)Cc1cc(C(C)(C)C)cc(c1OC/C=C/c1ccccc1)Cc1cc(C(C#N)(OC/C=C\\c3ccccc3)OC/C=C/c3ccccc3)cc(c1OC/C=C\\c1ccccc1)C2 (stereo not given)", "GI50": "> 100 µM (inactive)"}
{"molecule": "O=C1CCC23CC(C=CC=C12)n1c(=O)n(-c2ccccc2)c(=O)n13 (stereo not given)", "GI50": "42.4 µM (inactive)"}

Value wanted: GI50 (CCRF-CEM) of entry O=c1c(Br)cc2c(-c3ccccc3)c3cc(Br)c(O)c(Br)c3oc-2c1Br > 100 µM (inactive)

Value wanted: GI50 (CCRF-CEM) of entry Cc1ccc(NC(=O)OCC(COc2ccc(Cl)cc2)OC(=O)Nc2ccc(C)cc2)cc1 (stereo not given) 9.93 µM (inactive)

Value wanted: GI50 (CCRF-CEM) of entry Cc1ccc(C(=O)/C=C/c2cccc([N+](=O)[O-])c2)cc1 29.1 µM (inactive)

Value wanted: GI50 (CCRF-CEM) of entry COc1cccc(N2C(=O)C3c4[nH]c5ccccc5c4C4CCCC4C3C2=O)c1 (stereo not given) > 10 µM (inactive)

Value wanted: GI50 (CCRF-CEM) of entry N[C@@H]1CCN(c2c(F)cc3c(=O)c(C(=O)O)cn4c3c2Oc2cc3c(ccc5ccccc53)cc2-4)C1 0.0482 µM (active)

Each recorded value in this set is attributed to ChEMBL document CHEMBL1201862.
